B1: minF1; the commonest letter at each place (parent)
chain: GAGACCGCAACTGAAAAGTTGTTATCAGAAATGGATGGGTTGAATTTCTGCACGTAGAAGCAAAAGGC

Variants of: B1
PROTOCOL_DESCRIPTION: fraction ligated after 30 min (ligated reads / total reads); higher = more ligase activity
CONDITION_CONTEXT: with F1*subA RNA substrate (template-directed ligation), 42 °C

[
  {
    "CONSTRUCT_SEQUENCE": "GAGACCGCAACTGAAAAGTTGTTACCCGAAATGGATGGGTTGAATTTCTGCACGTAGAAGCAAAAGGC [T25C A27C]",
    "fraction ligated": 0.113
  },
  {
    "CONSTRUCT_SEQUENCE": "GAGACCGCAACTGAAAAGTTGTTATCAGAAATGGATCGGTTAAATTTCTGCACGTAGAAGCAAAAGGC [G37C G42A]",
    "fraction ligated": 0.00281
  },
  {
    "CONSTRUCT_SEQUENCE": "GAGACCGCAACTGAAAAGTTGTTATCAGAAATGTATTGGTTGAATTTCTGCACGTAGAAGCAAAAGGC [G34T G37T]",
    "fraction ligated": 0.00356
  },
  {
    "CONSTRUCT_SEQUENCE": "GAGACCGCAACTGAAAAGTTGTTGTAAGAAATGGATGGGTTGAATTTCTGCACGTAGAAGCAAAAGGC [A24G C26A]",
    "fraction ligated": 0.0171
  },
  {
    "CONSTRUCT_SEQUENCE": "GAGACCGCAACTGAAAAGTTGTTATGAGAACTGGATGGGTTGAATTTCTGCACGTAGAAGCAAAAGGC [C26G A31C]",
    "fraction ligated": 0.0238
  },
  {
    "CONSTRUCT_SEQUENCE": "GAGACCGCAACTGAAAAGTTGTTATCGGAAAGGGATGGGTTGAATTTCTGCACGTAGAAGCAAAAGGC [A27G T32G]",
    "fraction ligated": 0.0179
  },
  {
    "CONSTRUCT_SEQUENCE": "GAGACCGCAACTGAAAAGTTGTTCTCAGAAATGGATGGGTTGTATTTCTGCACGTAGAAGCAAAAGGC [A24C A43T]",
    "fraction ligated": 0.0035
  },
  {
    "CONSTRUCT_SEQUENCE": "GAGACCGCAACTGAAAAGTTGTTTTCAGAAATGGATGGGTTGCATTTCTGCACGTAGAAGCAAAAGGC [A24T A43C]",
    "fraction ligated": 0.00315
  },
  {
    "CONSTRUCT_SEQUENCE": "GAGACCGCAACTGAAAAGTTGTTATCAGAAATGGATGGGTTAGTTTTCTGCACGTAGAAGCAAAAGGC [G42A A43G A44T]",
    "fraction ligated": 0.00363
  }
]

Source of measurements: the supplement of paper PMC6755084
